Tested on: CCRF-CEM leukemia
Assay: NCI-60 one-dose screen, 48 h
Settings: 10 µM
This is part of a sample that, as a whole, favours compounds with a hit. Of some 83,000 tested, about 20% had one in any assay. Calls of active or inactive are those of the source. The calls were made as follows: active = growth percent below 10; inactive = the rest.
Possible outcomes: 1 (active), -1 (inactive)

• CCNC(=S)NN = -1
• Nc1ncc(-c2ccc(C(F)(F)F)cc2)c(NC2CCCCCC2)n1 = -1
• CCCCN(CCCC)c1ccc(C(=NC(C)CCCN(CC)CC)c2ccc(N(C)C)cc2)cc1 (configuration not stated) = 1
• CC(=O)Oc1ccc(C2=Cc3ccc(OC(C)=O)cc3OC2C)cc1 (configuration not stated) = -1
• Cc1ccc(/C=C2\CN(Cc3cn(CCNc4ccnc5cc(Cl)ccc45)nn3)C/C(=C\c3ccc(C)cc3)C2=O)cc1 = -1
• CCOC(=O)c1cc2c(n1Cc1cccc(OC)c1)-c1oncc1CC2 = -1
• FC(F)(F)c1ccc(-c2cnc(Cl)nc2NCc2cc(C(F)(F)F)cc(C(F)(F)F)c2)cc1 = -1
• Nc1ccccc1NC(=O)CCCCCCC(=O)Nc1ccc2c(c1)/C(=C/c1ccc[nH]1)C(=O)N2 = 1
• CCOC(=O)c1ccc(N(C=O)CCC(=O)CCl)cc1 = 1
• CC1=CSC2=NC(c3ccc(Cl)c(Cl)c3)=CC(c3ccc(Cl)cc3)N12 (configuration not stated) = -1
• O=S(=O)(NCl)c1ccccc1 = -1
• Cc1ccccc1[P+](Cc1ccccc1)(c1ccccc1)c1ccccc1 = -1
• COc1ccc(-c2cc(/C=C/C(=O)c3ccc(N)cc3)[nH]n2)cc1OC = 1
• CC(=O)c1c(O)cc2c3c1OC(C)(C)C1CCC(C)(CC31)O2 (configuration not stated) = -1
• COCc1cc2c(cc1Br)OCO2 = -1
• COc1ccc2nc(C)cc(Nc3ccc(Cl)cc3)c2c1 = -1
• COc1cc(-c2nc3ccccc3[nH]2)ccc1OCC(=O)N=Nc1c(O)[nH]c2ccccc12 = 1
• Cc1ccc(Cl)cc1Nc1nc(C(F)(F)F)ccc1C(=O)N/N=C/c1c(Cl)cccc1Cl = 1
• COc1cc(/C=C/C(=O)c2cc(-c3ccc(F)cc3)ccc2O)cc(OC)c1OC = 1
• Cn1c(=O)c2[nH]c(C(O)c3ccc(Cl)cc3)nc2n(C)c1=O (configuration not stated) = -1
• COc1ccc(-c2cc(/C=C3\C(=O)Nc4cc(Cl)ccc43)[nH]n2)cc1 = -1
• CN(C)CCCN(Cc1ccccc1O)C(=S)Nc1ccc(Cl)cc1 = -1
• O=C1/C(=C/c2ccc(O)cc2)Oc2ccc(Cl)cc21 = -1
• S=C(Cc1ccc(-c2ccccc2)cc1)N1CCOCC1 = -1
• O=c1oc2cc(OS(=O)(=O)C3CC3)ccc2c2c1CCCCCC2 = -1
• COc1ccc2oc(=O)cc(C(c3ccc[nH]3)c3ccc[nH]3)c2c1 = -1
• C#C[C@]1(O)CC[C@H]2[C@@H]3CC[C@H]4CC(F)(F)CC[C@]4(C)[C@H]3CC[C@@]21C = -1
• CC(=O)O[C@H]1CC[C@@]2(C)[C@@H](CC[C@@H]3[C@@H]2CC[C@]2(C)C=C(C=O)C[C@@H]32)C1 = 1
• Cn1c(N)c(N=Cc2ccccc2)c(=O)n(C)c1=O = -1
• CNCCCNCCCN1C(=O)c2ccc3c4c(ccc(c24)C1=O)C(=O)N(CCCNCc1ccccc1OC)C3=O = 1
• CCCCCN(CCCCC)C(C)C(O)c1ccc2cc(Cl)c3ccccc3c2c1 (configuration not stated) = -1
• CCc1c(C(=O)NCc2c(O)ccc3cccc(O)c23)[nH]c(C)c1C(C)=O = -1
• CN(C)c1ccc2c(c1)OC(N)=C(C#N)C2c1ccc2c(c1)CCO2 (configuration not stated) = -1
• COc1cc(NS(C)(=O)=O)ccc1Nc1c2ccc(Cl)cc2nc2c(OC)cccc12 = 1
• COC(=O)[C@]12CC[C@@H](C)[C@H](C)[C@@H]1C1=CC[C@@H]3[C@@]4(C)C/C(=N\O)[C@H](O)[C@@]5(C)COC(=C45)C[C@@]3(C)[C@]1(C)CC2 = 1
• O=NN(CCCl)C(=O)Nc1ccc(NC(=O)N(CCCl)N=O)cc1 = -1
• CC(C)C(C)C(N)C(=O)O (configuration not stated) = -1
• CC(C)(C)c1ccc(OCCCCCCN2CCNCC2)cc1 = -1
• Cc1noc(C)c1-c1ccc2nc(NC(=O)[C@H]3CCN(C#N)C3)cn2c1 = -1
• CCOCC[P+](c1ccccc1)(c1ccccc1)c1ccccc1 = -1
• COc1cc(-c2cc(-c3ccc(C)cc3)nc3nc(N)[nH]c(=O)c23)ccc1Oc1ccnc2cc(Cl)ccc12 = -1
• COc1ccc(/C(=C/c2cc(OC)c(OC)cc2[N+](=O)[O-])C(=O)O)cc1 = -1
